tested on: MCF7; assay: Antiproliferative activity against human MCF7 cells incubated for 72 hrs by MTT assay; settings: MCF7, 72 h
endpointName: IC50 (µM)

smilesEntry | IC50 / µM
Cc1cc2c(cc1Cl)SC(/N=C(/N)Nc1ccc3ccccc3n1)=NS2(=O)=O | 2.3

P. CC(=O)c1cn(C)c2ccc(N/C(N)=N\C3=NS(=O)(=O)c4cc(C)c(Cl)cc4S3)cc12
Q. Cc1cc(S(=O)(=O)Nc2nc(Nc3cncc4ccccc34)n[nH]2)c(S)cc1Cl
R. Cc1cc(S(=O)(=O)Nc2nc(Nc3ccc4cnccc4c3)n[nH]2)c(S)cc1Cl
S. Cc1cc(S(=O)(=O)Nc2nc(Nc3ccc4ccccc4c3)n[nH]2)c(S)cc1Cl
T. Cc1cc2c(cc1Cl)SC(/N=C(/N)Nc1ccc(N3CCOCC3)cc1)=NS2(=O)=O
Arrange by IC50, high to low. // format: requested-order list of labels
R, S, P, Q, T

P. Cc1cc2c(cc1Cl)SC(/N=C(/N)Nc1ccnc3cc(Cl)ccc13)=NS2(=O)=O
Q. Cc1cc(S(=O)(=O)Nc2nc(Nc3cnc4ccccc4c3)n[nH]2)c(S)cc1Cl
R. Cc1cc2c(cc1Cl)SC(/N=C(/N)Nc1ccc3c(ccc(=O)n3C)c1)=NS2(=O)=O
Order field: IC50 | Direction: descending (largest first) Quick reminder: the answer is the labels in the order asked.
Q, R, P
